Target: Low molecular weight phosphotyrosine protein phosphatase (Homo sapiens, UniProt P24666)
Sequence (P24666 whole entry): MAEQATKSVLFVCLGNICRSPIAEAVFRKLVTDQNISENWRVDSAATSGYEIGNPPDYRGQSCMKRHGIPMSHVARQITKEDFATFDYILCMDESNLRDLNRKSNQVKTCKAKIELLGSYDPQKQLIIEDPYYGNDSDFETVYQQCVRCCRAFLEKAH
pIC50: −log10 of the molar value.
REPORTED_PROPERTY: pIC50

**Q:** Given CC(C)(C)OC(=O)C1(c2cc(NCCCC3CCCNC3)c3ccccc3n2)C=c2ccccc2=N1 (stereo unspecified) , state its recorded pIC50.
**A:** < 5.30

The measurements presented in this section are drawn from BindingDB's records for patent US11220486.
